Test system: OVCAR-8 ovarian
Test: NCI tumour cell line growth inhibition, 48 h
parameterMeasured: TGI (µM)
Reply with just the number (in µM).

Take a look at these entries with their results.
Prompt: Reported TGI, molecule CCCCCCCCC(=O)NCCCNCCCNC(=O)CCCCCCCC : ____
Response: 32.9

Prompt: Proceed to COc1cc(C2c3cc4c(cc3[C@@H](Nc3cccc(O)c3)C3COC(=O)[C@H]23)OCO4)cc(OC)c1O (stereo not given in full)
Response: 11.4

Prompt: Proceed to O=C(CN=Cc1cccs1)CSC(c1ccccc1)c1ccccc1
Response: 55.5

More entries:
Prompt: Reported TGI, molecule CCN(CC)CCOc1ccc(C2=C(c3ccccc3)CCc3cc(OC)ccc32)cc1 : ____
Response: 10.5

Prompt: Proceed to C=C(CCC(C(=O)O)C1CCC2(C)C3=C(CCC12C)C1(C)CCC(O)C(C)(C)C1CC3)C(C)C (stereo not given)
Response: 47.2

Prompt: Proceed to O=C(CC(C(=O)O)N1CCOCC1)c1ccccc1 (stereo not given)
Response: 94.8

----------
System: SK-MEL-28 melanoma
Test: NCI tumour cell line growth inhibition, 48 h; in the data active = GI50 below about 0.43 µM; inactive = the rest
The categories you may choose from are yes (1) = active, no (0) = inactive

Illustrative cases are given below, each with its answer.
Prompt: Hello, I am checking results. What call was entered for CC(C)n1nc(C#Cc2cccc(NC(=O)c3cccc(C(F)(F)F)c3)c2)c2c(N)ncnc21 ?
Response: yes (1)

Prompt: Proceed to Cn1cc(-c2nn3cc(-c4cccs4)nc3s2)c2cc(F)ccc21
Response: no (0)

Prompt: Proceed to COc1ccc(S(=O)(=O)NCCNc2nccc(-c3c(-c4ccccc4)nc4sccn34)n2)cc1
Response: no (0)

Prompt: Proceed to O=C(CN=Cc1cccs1)CSC(c1ccccc1)c1ccccc1
Response: no (0)

Prompt: Proceed to C=CC[PH+](c1ccccc1)c1ccccc1.C=CC[PH+](c1ccccc1)c1ccccc1.[Cl][Pt][Cl]
Response: no (0)

More entries:
Prompt: Hello, I am checking results. What call was entered for COc1cc(/C=C\c2cccnc2Nc2ccccc2)cc(OC)c1OC ?
Response: no (0)

Prompt: Proceed to CCOC(=O)C1=C(c2ccccc2)N(Cc2ccccc2)C2(O)C=CC(=O)C3C(=O)N(c4ccccc4)C(=O)C132 (configuration not stated)
Response: no (0)

----------
# TGI annotations
Tested on: NCI/ADR-RES ovarian
Assay: NCI tumour cell line growth inhibition, 48 h

Take a look at these entries with their results.
Prompt: Reported TGI, molecule COc1cc(OC)c(/C=C/S(=O)(=O)Cc2ccc(OC)c(NCC(=O)O)c2)c(OC)c1 : ____
Response: > 3.12 µM

Prompt: Proceed to CN1CCN(C(=S)SCN2C(=O)c3ccccc3S2(=O)=O)CC1
Response: > 100 µM

Prompt: Proceed to CSc1nc2c(ncn2C2OCC(O)C(O)C2O)c(=O)[nH]1 (stereo not given)
Response: > 100 µM

Prompt: Proceed to CN(C)CCNC(=O)c1cccc2c(NC(CS)C(=O)O)c3ccccc3nc12 (stereo not given)
Response: > 100 µM

Prompt: Proceed to COc1cc([C@@H]2c3cc4c(cc3[C@@H](Nc3ccc(Cl)cc3C(=O)c3ccccc3Cl)[C@H]3COC(=O)[C@H]23)OCO4)cc(OC)c1OC
Response: > 37.7 µM

Prompt: Proceed to CCOc1cc(C=O)ccc1O
Response: > 100 µM

Prompt: Proceed to N#Cc1nnc2c3c(-c4ccc(Cl)cc4)c(C#N)c(=O)[nH]c3nn2c1N
Response: 54.9 µM

Prompt: Proceed to CCOC(=O)Cc1csc(NC(=O)C(OC(=O)c2ccc(N)cc2)c2ccccc2)n1 (stereo not given)
Response: > 100 µM

More entries:
Prompt: Reported TGI, molecule Nc1ccc2c(c1)CN1C(=O)c3ccccc3C1=N2 : ____
Response: > 125 µM

Prompt: Proceed to CCCCCCN(CCCCCC)CC(O)c1cccc2ccc(Cl)cc12 (stereo not given)
Response: 25.1 µM

Value source: PubChem BioAssay (NCI)
